meta.source: ChEMBL document CHEMBL4406921

- assay-info: AUC(0 to t) in Sprague-Dawley rat at 5 mg/kg, po administered via gavage
- Type: ADME, organism-based
- test-conditions: in vivo
parameter-measured: AUC(0-t) (ng·h/mL)
I only need the number, in ng·h/mL, no unit after it.

Please review the entries below; each comes with its answer.
NC(=O)c1cccc([C@H]2C[C@H]3CC[C@@H](C2)N3CCN(CC2CCCCC2)C(=O)[C@@H](O)CO)c1.O=S(=O)(O)O [AXELOPRAN SULFATE]	470
NC(=O)c1cccc([C@H]2C[C@H]3CC[C@@H](C2)N3CCN(CC2CCCCC2)C(=O)CO)c1	430
CS(=O)(=O)CC(=O)N(CCN1[C@@H]2CC[C@H]1C[C@@H](c1cccc(C(N)=O)c1)C2)CC1CCCCC1	1300
C[C@H]1CN(C[C@H](Cc2ccccc2)C(=O)O)CC[C@@]1(C)c1cccc(O)c1	1200

Would you kindly look at the next entry?
Q: I would be grateful if you could share the reported AUC(0-t) for NC(=O)c1cccc([C@H]2C[C@H]3CC[C@@H](C2)N3CCN(CC2CCC(F)(F)CC2)C(=O)CO)c1 .
Ans: 1200
